tested_system: Serine/threonine-protein kinase Chk2 (Homo sapiens, UniProt O96017)
Sequence (O96017 whole entry): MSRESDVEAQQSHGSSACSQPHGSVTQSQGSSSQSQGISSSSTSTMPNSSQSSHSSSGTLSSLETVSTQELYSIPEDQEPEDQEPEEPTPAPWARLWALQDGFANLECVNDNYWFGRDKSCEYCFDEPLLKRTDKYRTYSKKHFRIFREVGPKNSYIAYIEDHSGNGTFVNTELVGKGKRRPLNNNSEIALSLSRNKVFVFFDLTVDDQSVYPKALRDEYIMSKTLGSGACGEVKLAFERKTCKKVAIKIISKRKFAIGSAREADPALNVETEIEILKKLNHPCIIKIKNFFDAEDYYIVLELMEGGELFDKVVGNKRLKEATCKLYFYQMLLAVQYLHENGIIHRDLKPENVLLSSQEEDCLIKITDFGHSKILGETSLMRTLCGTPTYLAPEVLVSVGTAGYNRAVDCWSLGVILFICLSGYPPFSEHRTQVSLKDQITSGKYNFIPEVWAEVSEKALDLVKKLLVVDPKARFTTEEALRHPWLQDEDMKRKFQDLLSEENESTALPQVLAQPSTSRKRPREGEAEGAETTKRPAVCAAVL
protocol_text: Inhibition of CHK2 at 10 uM by mobility shift assay
Consider the following compounds; for each one, report its inhibition.
Reply numerically in %, unit not repeated.

Exam item: Name the recorded inhibition of the item c1ccc2c(-c3cnc4cnc(-c5cn[nH]c5)cn34)c[nH]c2c1 in your answer.
Marked response: 82

Exam item: Name the recorded inhibition of the item OCc1cccc(-c2cn3c(-c4cn[nH]c4)cnc3cn2)c1 in your answer.
Marked response: 79

Exam item: Name the recorded inhibition of the item O=S(=O)(NCCNC/C=C/c1ccc(Br)cc1)c1cccc2cnccc12 in your answer.
Marked response: 81
